Data provenance: the RepoRT retention time repository

# protocol.description: HILIC, Merck SeQuant ZIC-HILIC, 25 °C, 0.25 mL/min; A: water + 16 mM ammonium formate; B: acetonitrile + 0.1% formic acid, pH 3; gradient (min/%B) 0/97 2/97 10/70 15/10 17/10 18/97 25/97
# reported.conditions: stereoisomer not certain
For each record, write down the corresponding LC retention time.
Provide the reading as a plain figure in min.

What measured LC retention time goes with NCCCC(=O)O [GAMMA-AMINOBUTYRATE] ?
13.5

What measured LC retention time goes with COc1cc(C(=O)O)ccc1O ?
2.08

What measured LC retention time goes with NCCc1ccc(O)cc1 ?
11.3

What measured LC retention time goes with Nc1nc2c(c(=O)[nH]1)N=C(CNc1ccc(C(=O)NC(CCC(=O)O)C(=O)O)cc1)CN2 (stereo not given) [DIHYDROFOLATE] ?
12.4

What measured LC retention time goes with NCCS ?
16.9

What measured LC retention time goes with CC(=O)C1(O)CCC2C3CC=C4CC(O)CCC4(C)C3CCC21C (stereo not given) [17a-Hydroxypregnenolone_H2] ?
2.17

What measured LC retention time goes with NC(=O)C1=CN(C2OC(COP(=O)(O)OP(=O)(O)OCC3OC(n4cnc5c(N)ncnc54)C(OP(=O)(O)O)C3O)C(O)C2O)C=CC1 (stereo not given) ?
15

What measured LC retention time goes with NC(CSCC(=O)O)C(=O)O (stereo not given) ?
14.4

What measured LC retention time goes with CC(CCC(=O)O)C1CCC2C3C(=O)CC4CC(O)CCC4(C)C3CC(=O)C12C (stereo not given) ?
1.92

What measured LC retention time goes with O=C1CC(C(=O)O)NC(=O)N1 (stereo not given) [DIHYDROOROTATE] ?
10.6
